biological target: Cytochrome P450 2A6 (Homo sapiens, UniProt P11509); experiment: Inhibition of human CYP2A6 in baculovirus-infected insect cell system using […] as substrate preincubated for 10 mins by fluorescence assay
Sequence (P11509 whole entry): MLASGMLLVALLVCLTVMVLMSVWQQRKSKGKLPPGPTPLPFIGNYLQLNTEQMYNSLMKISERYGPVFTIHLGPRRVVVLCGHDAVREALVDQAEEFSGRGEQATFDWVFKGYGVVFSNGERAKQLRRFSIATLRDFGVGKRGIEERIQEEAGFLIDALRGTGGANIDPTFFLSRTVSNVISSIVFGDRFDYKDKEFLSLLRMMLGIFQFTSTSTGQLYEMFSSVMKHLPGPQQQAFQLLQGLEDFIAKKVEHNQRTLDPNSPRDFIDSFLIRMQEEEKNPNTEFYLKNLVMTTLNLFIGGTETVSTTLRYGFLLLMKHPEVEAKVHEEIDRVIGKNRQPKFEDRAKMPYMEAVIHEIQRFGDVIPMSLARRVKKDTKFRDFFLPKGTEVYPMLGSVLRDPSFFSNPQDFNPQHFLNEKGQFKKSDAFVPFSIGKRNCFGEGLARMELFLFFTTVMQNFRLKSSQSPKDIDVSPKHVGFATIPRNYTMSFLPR
pIC50: −log10 of the molar value.
READOUT TYPE: pIC50

N#Cc1csc2ccc(Cl)cc12 4.39
O=Cc1c[nH]c2cc(Br)ccc12 4.24

(a) O=Cc1cc2ccccc2s1
(b) N#Cc1cc2ccccc2o1
(c) O=Cc1c[nH]c2cccc(Br)c12
(d) CCc1ccc(C#N)cc1
Query :: Endpoint returns the given compounds ordered by ascending pIC50. Returns: the labels listed in the requested order.
Result :: b, c, d, a
(b: 4.28, c: 4.92, d: 5.13, a: 5.49)
